# target.desc: Glycogen synthase kinase-3 beta (Homo sapiens)
# procedure.text: concentration-response blocking of human GSK3B – biochemical, luminescence, cell-free homogeneous, retest, dose response (AID 434954)
# conditions: recombinant GSK3beta, ADP-Glo luminescence, 60 min
Activity calls are given as the source filed them.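 The calls were made as follows: active = IC50 at or below a set limit above the highest tested dose; inconclusive = flat curve with 30 to 70% inhibition, or poor fit; inactive = the rest.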
Outcomes: active, inactive

{"molecule": "COc1cccc(C2C3=C(CC(C)(C)CC3=O)Nc3n[nH]c(C)c32)c1 (stereo unspecified)", "class.name": "active"}
{"molecule": "CC1=C(C(N)=O)C(c2sccc2C)n2nnnc2N1 (stereo unspecified)", "class.name": "inactive"}
{"molecule": "C(=N\\Nc1ncnc2nc[nH]c12)/c1cccs1", "class.name": "active"}
{"molecule": "CCOC(=O)C1=C(C)Nc2ncnn2C1c1cc(Br)ccc1F (stereo unspecified)", "class.name": "active"}
{"molecule": "COc1ccc(-c2c(C)n([O-])c(C)c(C)[n+]2=O)cc1", "class.name": "inactive"}
{"molecule": "O=[N+]([O-])c1cc(/C=N\\O)ccc1Oc1ccc(F)cc1", "class.name": "active"}
{"molecule": "COc1cccc(C2C(C(=O)OCc3ccccc3)=C(C)Nc3ncnn32)c1OC (stereo unspecified)", "class.name": "active"}
{"molecule": "CCOC(=O)C1=C(C)Nc2ncnn2C1c1ccc(N(C)C)cc1 (stereo unspecified)", "class.name": "inactive"}
{"molecule": "Cc1[nH]nc2c1C(c1ccc(N(C)C)cc1)C1=C(CC(C)(C)CC1=O)N2 (stereo unspecified)", "class.name": "active"}
{"molecule": "Fc1ccccc1/C=N/Nc1ncnc2nc[nH]c12", "class.name": "active"}
{"molecule": "COc1ccc(C2C(C(C)=O)=C(O)C(=O)N2c2nccs2)c(OC)c1 (stereo unspecified)", "class.name": "inactive"}
